- protocol-notes: Micro-PET/CT imaging, tumor-to-muscle count density ratio
- Parameters: species or system mice
- condition-info: mouse, in vivo, 0.14 mg per 100uCi (0.2 mL) per mouse, 60 min, 0.14mg per 100μCi, iv, n=2 per compound
Ends that are not written are not given here.
measured-parameter: tissue to tissue ratio at 1 h

Annotate the substance EEEEEE [^68Ga-GAP, metal not drawn] with its measured tissue to tissue ratio at 1 h.
1.2

Sourced from paper PMC6176321
